# Subject of test: T1, PNPase (Escherichia coli, UniProt P05055)
# T1 construct: made in house; host or cells: E. coli Evo21(DE3)
# T1 sequence (P05055 whole entry, looked up): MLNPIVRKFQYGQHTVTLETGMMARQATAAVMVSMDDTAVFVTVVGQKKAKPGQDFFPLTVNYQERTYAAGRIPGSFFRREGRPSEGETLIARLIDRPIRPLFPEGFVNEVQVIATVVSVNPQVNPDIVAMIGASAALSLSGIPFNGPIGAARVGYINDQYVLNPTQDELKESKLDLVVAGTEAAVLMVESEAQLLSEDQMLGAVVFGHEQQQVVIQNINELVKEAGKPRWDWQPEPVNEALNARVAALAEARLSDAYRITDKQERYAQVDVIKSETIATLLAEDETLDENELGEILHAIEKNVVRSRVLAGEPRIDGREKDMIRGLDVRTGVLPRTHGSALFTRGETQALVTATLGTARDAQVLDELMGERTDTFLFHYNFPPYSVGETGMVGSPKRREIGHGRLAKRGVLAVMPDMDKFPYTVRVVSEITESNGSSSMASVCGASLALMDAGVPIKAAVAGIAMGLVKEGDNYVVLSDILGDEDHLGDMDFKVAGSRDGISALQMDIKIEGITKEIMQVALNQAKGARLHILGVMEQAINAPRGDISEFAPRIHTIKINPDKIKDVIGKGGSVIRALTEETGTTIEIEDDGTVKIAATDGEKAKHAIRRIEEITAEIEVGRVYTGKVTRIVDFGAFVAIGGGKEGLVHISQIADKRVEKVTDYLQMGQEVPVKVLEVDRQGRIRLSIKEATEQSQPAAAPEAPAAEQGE
# Format: binding, E. coli
# Assay context: SPR, 25°C, immobilized PNPase C-His; HEPES pH 7.2; 0, 12.5, 25 and 50 nM (point mutants); contact 120 s, dissociation 120 s; duplicates
Could you please report measured Kd (dissociation rate constant, point mutants and wildtype) for the items listed next?
Numbers only, in s⁻¹.

Field: example entries. Status: answers known.
RNase E 960 – 1061 R1012AR10546A: RNase E peptide with mutation of both Arg1012 and Arg1056 to alanine (left off: His6, N-terminal, cleaved | MBP, N-terminal, cleaved | intein, C-terminal, cleaved | choline-binding domain, C-terminal, cleaved, RNase E peptide with mutation of both Arg1012 and Arg1056 to alanine) VVETAEVVVAEPEVVAQPAAPVVAEVAAEVETVAAVEPEVTVEHNHATAPMTAAPAPEYVPEAPRHSDWQRPTFAFEGKGAAGGHTATHHASAAPAAPQPVE : 0.12
RNase E 960 – 1061 R1012A: RNase E peptide with point mutation of Arg1012 to alanine (left off: His6, N-terminal, cleaved | MBP, N-terminal, cleaved | intein, C-terminal, cleaved | choline-binding domain, C-terminal, cleaved, RNase E peptide with point mutation of Arg1012 to alanine) VVETAEVVVAEPEVVAQPAAPVVAEVAAEVETVAAVEPEVTVEHNHATAPMTAAPAPEYVPEAPRHSDWQRPTFAFEGKGAAGGHTATHHASAAPARPQPVE : 0.052

Lab book: Kd (dissociation rate constant, point mutants and wildtype) of RNase E 960 – 1061 wildtype: wildtype RNase E peptide 960–1061 (left off: His6, N-terminal, cleaved | MBP, N-terminal, cleaved | intein, C-terminal, cleaved | choline-binding domain, C-terminal, cleaved) VVETAEVVVAEPEVVAQPAAPVVAEVAAEVETVAAVEPEVTVEHNHATAPMTRAPAPEYVPEAPRHSDWQRPTFAFEGKGAAGGHTATHHASAAPARPQPVE noted as 0.026
